Values were extracted from ChEMBL document CHEMBL1201862.

The following compounds each carry a recorded GI50 for HCT-15.
property-measured: GI50

1. Cn1cnc([N+](=O)[O-])c1Sc1nc2cccnc2[nH]1 : > 100 µM
2. C(/Cc1ccc2c(c1)OCO2)=N\N=C1NCCCCN1 : > 100 µM
3. C[As+](C)(c1ccc(Br)c([N+](=O)[O-])c1)c1ccc(Br)c([N+](=O)[O-])c1 : > 100 µM
4. CCP(=O)(CC)C(Cl)Cl : > 100 µM

---

- Tested on: OVCAR-3
- assay-comment: NCI tumour cell line growth inhibition, 48 h
The source made the active and inactive calls. Cut-off read from the data, not from the text of the source: active = GI50 up to about 1.1 µM and inactive = higher.
Labels: true = active, false = inactive

1. COc1ccc(-c2cc3c(c4cc(OC)ccc24)C(=O)OC3=O)cc1 : false
2. O=C(O)c1cc2ccccc2c(O)c1O : false
3. O=C1OC(c2ccccc2)=N/C1=C\c1ccc(Cl)cc1 : false
4. CCOC(=O)CC1Nc2ccccc2C12CCc1c([nH]c3ccccc13)C2C(=O)OCC (stereo not given) : false
5. OC1c2ccccc2CC12Cc1ccccc1C2 (stereo not given) : false
6. C(=N\NC1=NCCCN1)/c1ccc(-c2cn3cc(/C=N/NC4=NCCCN4)ccc3n2)cc1 : false
7. CC(=O)N1N=C(c2c(O)ccc3ccccc23)CC1C(=O)c1ccco1 (stereo not given) : false
8. Cc1cccc(C(C)(C)C)c1NC(=O)C(=O)Cc1nc2ccccc2s1 : false
9. CC(C)=CC(=O)Oc1ccc([N+](=O)[O-])cc1 : false
10. O=C(Cc1ccccc1)NN1C(=O)C(Cl)C1c1cccc([N+](=O)[O-])c1 (stereo not given) : false
11. Nc1ncnc2c1nc(Cl)n2C1OC(CO)C(O)C1O (stereo not given) : false
12. COc1cc(C2c3cc4c(cc3[C@@H](Nc3ccc(N5CCOCC5)cc3)C3COC(=O)[C@H]23)OCO4)cc(OC)c1O (stereo not given in full) : false
13. CC(=O)OCC(OC(C)=O)C1C[C@H]2O[C@@H]3[C@H](C[C@H]2O1)O[C@@]1(C[C@@H]3C)C[C@H](C)[C@@H]2O[C@]3(C[C@@H]2O1)C[C@H]1O[C@H]2[C@H](C)[C@H]4OC(=O)C[C@H]5CC[C@@H]6OC7[C@H]8O[C@]9(CC[C@H]%10CC(=O)[C@H](CC[C@H]%11C[C@@H](C)C(=O)C(C[C@@H]4O[C@H]2C[C@H]1O3)O%11)O%10)CC8O[C@@H]7[C@@H](O9)[C@H]6O5 (stereo not given in full) : true
14. COc1cc(OCc2ccc3nc(-c4ccccc4)c(Cl)nc3c2)cc(OC)c1OC : false
15. Nc1nn(CC(O)CO)c(=O)s1 (stereo not given) : false
16. O=C(O)CCSC(=O)Nc1cccc2ccccc12 : false
17. CNc1c2cccc(C)c2nc2c(C(=O)NCCN(C)C)cccc12 : true
18. O=C(Nc1nncs1)NS(=O)(=O)n1c(=S)sc2ccccc21 : false
19. O=C1N(c2ccccc2)C(=O)C2(SC=NN2Cc2ccccc2)N1c1ccccc1 (stereo not given) : false
20. CSc1ccc(/C=C2\N=C(c3ccccc3)N(c3nc4cc(Cl)c(F)cc4s3)C2=O)cc1 : false
21. CN(C(=O)c1ccc(OCCCC(=O)O)c(Cl)c1Cl)C1CCCC1 : false
22. COc1ccccc1C1=C2C(=O)N(C)C(c3ccccc3OC)=C2C(=O)N1C : false
23. CCCCCCCCCCCCCCC(O)C[N+](C)(CCO)CCO (stereo not given) : false
24. CC(C)(C)c1cc(C2COC(c3cc(C(C)(C)C)c(O)c(C(C)(C)C)c3)CO2)cc(C(C)(C)C)c1O (stereo not given) : false
25. COc1ccc(OC)c(NC(=O)C(=O)Nn2c(S)nc3ccccc3c2=O)c1 : false
